method.summary: Rat GLP 28-day repeat-dose intraperitoneal toxicity study
Assay type: in vivo, SD rats
particulars: female, SD, rat, plasma, ip; Day 1, 0.5 mg/kg, females
Procedure: TRX-E-002-1 peak plasma concentrations were observed 0.25 – 0.5 h after dosing, except for mid-dose females on Day 1 (T max = 1 h). […] Mean plasma TRX-E-002-1 concentrations were roughly proportional to dose and were generally higher in males than in females. […] No deaths were observed during the study. […] At 10 mg/kg, reduced quantity of faeces was observed during the first 1 or 2 weeks in all animals. […]
assay.metric: Cmax (ng/mL)
The answer is to be given in ng/mL; state only the numeric part.

Measured Cmax, COc1cc([C@@H]2COc3c(ccc(O)c3C)[C@@H]2c2ccc(O)cc2)cc(OC)c1O [TRX-E-002-1] : 33.4

###

method.summary: Rat GLP 28-day repeat-dose intraperitoneal toxicity study
Format: in vivo, SD rats
particulars: female, SD, rat, plasma, ip; Day 1, 3 mg/kg, females
assay.metric: Cmax (ng/mL)
I only need the number, in ng/mL, no unit after it.

Item: "COc1cc([C@@H]2COc3c(ccc(O)c3C)[C@@H]2c2ccc(O)cc2)cc(OC)c1O" | Cmax: 150

###

method.summary: Rat 14-day pilot repeat-dose intraperitoneal toxicity study
Type: in vivo
particulars: male, Sprague-Dawley, rat, plasma, ip; Day 14, 5 mg/kg/day, males
assay.metric: AUC(0-t)
Record the result as a number with its unit.

Recorded result, "COc1cc([C@@H]2COc3c(ccc(O)c3C)[C@@H]2c2ccc(O)cc2)cc(OC)c1O" , AUC(0-t): 1870 ng·h/mL

###

method.summary: Rat GLP 28-day repeat-dose intraperitoneal toxicity study
Type: in vivo, SD rats
particulars: male, SD, rat, plasma, ip; Day 1, 10 mg/kg, males
assay.metric: Cmax (ng/mL)
Unit ng/mL implied. Number only.

Short answer for COc1cc([C@@H]2COc3c(ccc(O)c3C)[C@@H]2c2ccc(O)cc2)cc(OC)c1O [TRX-E-002-1] : Cmax was 780

###

method.summary: Rat GLP 28-day repeat-dose intraperitoneal toxicity study
Format: in vivo, SD rats
particulars: male, SD, rat, plasma, ip; Day 1, 3 mg/kg, males
Description: TRX-E-002-1 peak plasma concentrations were observed 0.25 – 0.5 h after dosing, except for mid-dose females on Day 1 (T max = 1 h). […] Mean plasma TRX-E-002-1 concentrations were roughly proportional to dose and were generally higher in males than in females. […] No deaths were observed during the study. […] At 10 mg/kg, reduced quantity of faeces was observed during the first 1 or 2 weeks in all animals. […]
assay.metric: Cmax (ng/mL)
Express your answer in ng/mL, writing the number without its unit.

// recorded Cmax for "COc1cc([C@@H]2COc3c(ccc(O)c3C)[C@@H]2c2ccc(O)cc2)cc(OC)c1O" : 181

###

method.summary: Rat 14-day pilot repeat-dose intraperitoneal toxicity study
Type: in vivo
particulars: both sexes, Sprague-Dawley, rat, in vivo, ip
assay.metric: NOAEL at 14 days (mg/kg/day)
Please give a number only; it is taken to be in mg/kg/day.

Query COc1cc([C@@H]2COc3c(ccc(O)c3C)[C@@H]2c2ccc(O)cc2)cc(OC)c1O [TRX-E-002-1] yields NOAEL at 14 days of 5

###

method.summary: Rat GLP 28-day repeat-dose intraperitoneal toxicity study
Format: in vivo, SD rats
particulars: both sexes, Sprague-Dawley, rat, plasma, ip; all groups except mid-dose females on Day 1; read-out: time of peak plasma concentrations
assay.metric: Tmax

Sure, the documented Tmax for "COc1cc([C@@H]2COc3c(ccc(O)c3C)[C@@H]2c2ccc(O)cc2)cc(OC)c1O" is 15 to 30 min
